# Tested on: 845751-090-R-J2-PDC tumor spheroid viability
# Test Method Notes: Anticancer human tumor 845751-090-R-J2-PDC patient-derived head and neck squamous carcinoma cell line growth inhibition [IpAb]
# Conditions Used: second compound 0.316 µM; first compound 3.16 µM; stronger effect = lower value; spheroids with HUVEC and MSC
# Method: Combinatorial screen of targeted agents with ipatasertib and abemaciclib in multi-cell type tumor spheroids […] Compounds. […] If the clinical Cmax for an agent had not been determined, the highest concentration tested was 10 microM. NCI60 Cell Culture. […] The optimal seeding densities for each of the cell lines at each time point assessed were determined prior to performing the concentration response studies. […]
Label true when viability, T/C is strictly below 30%; at or above that, label false.

1. CCCS(=O)(=O)Nc1ccc(F)c(C(=O)c2c[nH]c3ncc(-c4ccc(Cl)cc4)cc23)c1F + CCN1CCN(Cc2ccc(Nc3ncc(F)c(-c4cc(F)c5nc(C)n(C(C)C)c5c4)n3)nc2)CC1
true
2. CCCS(=O)(=O)Nc1ccc(F)c(C(=O)c2c[nH]c3ncc(-c4ccc(Cl)cc4)cc23)c1F + CC(C)NCC(C(=O)N1CCN(c2ncnc3c2C(C)CC3O)CC1)c1ccc(Cl)cc1
false
3. Cn1ncc(Cl)c1-c1cc(C(=O)NC(CN)Cc2cccc(F)c2)sc1Cl (stereo not given) + CCN1CCN(Cc2ccc(Nc3ncc(F)c(-c4cc(F)c5nc(C)n(C(C)C)c5c4)n3)nc2)CC1
true
4. C=CC(=O)N1CCN(c2nc(=O)n(-c3c(C)ccnc3C(C)C)c3nc(-c4c(O)cccc4F)c(F)cc23)C(C)C1 (stereo not given) + CC(C)NCC(C(=O)N1CCN(c2ncnc3c2C(C)CC3O)CC1)c1ccc(Cl)cc1
true
5. Cn1ncc(Cl)c1-c1cc(C(=O)NC(CN)Cc2cccc(F)c2)sc1Cl (stereo not given) + CC(C)NCC(C(=O)N1CCN(c2ncnc3c2C(C)CC3O)CC1)c1ccc(Cl)cc1
true

* * *

# Tested on: 845751-090-R-J2-PDC tumor spheroid viability
# Test Method Notes: Anticancer human tumor 845751-090-R-J2-PDC cell line growth inhibition [IpAb];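 note: spheroids exposed to compounds for 7 days before readout; CTG3D luminescence normalised so that 100% = DMSO vehicle control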
# Conditions Used: second compound 0.1 µM; first compound 0.000316 µM; stronger effect = lower value; spheroids with HUVEC and MSC
Quantity Name: viability, T/C (%)

1) Cn1ncnc1[C@H]1c2n[nH]c(=O)c3cc(F)cc(c23)N[C@@H]1c1ccc(F)cc1 + CC(C)NCC(C(=O)N1CCN(c2ncnc3c2C(C)CC3O)CC1)c1ccc(Cl)cc1
53.9
2) CC(C)n1nc(-c2ccc3oc(N)nc3c2)c2c(N)ncnc21 + CCN1CCN(Cc2ccc(Nc3ncc(F)c(-c4cc(F)c5nc(C)n(C(C)C)c5c4)n3)nc2)CC1
62.6
3) CC(C)n1nc(-c2ccc3oc(N)nc3c2)c2c(N)ncnc21 + CC(C)NCC(C(=O)N1CCN(c2ncnc3c2C(C)CC3O)CC1)c1ccc(Cl)cc1
55.2
4) Cn1ncnc1[C@H]1c2n[nH]c(=O)c3cc(F)cc(c23)N[C@@H]1c1ccc(F)cc1 + CCN1CCN(Cc2ccc(Nc3ncc(F)c(-c4cc(F)c5nc(C)n(C(C)C)c5c4)n3)nc2)CC1
71.9

* * *

# System: 845751-090-R-J2-PDC tumor spheroid viability
# Test Method Notes: Anticancer human tumor 845751-090-R-J2-PDC cell line growth inhibition [IpAb];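 note: spheroids exposed to compounds for 7 days before readout; CTG3D luminescence normalised so that 100% = DMSO vehicle control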
# Conditions Used: second compound 0.316 µM; first compound 0.0316 µM; stronger effect = lower value; spheroids with HUVEC and MSC
Checkbox rule: viability, T/C lower than 30% = condition met; viability, T/C not lower than 30% = condition not met.

1) Cn1ncnc1[C@H]1c2n[nH]c(=O)c3cc(F)cc(c23)N[C@@H]1c1ccc(F)cc1 + CCN1CCN(Cc2ccc(Nc3ncc(F)c(-c4cc(F)c5nc(C)n(C(C)C)c5c4)n3)nc2)CC1
condition not met
2) Cn1ncc(Cl)c1-c1cc(C(=O)NC(CN)Cc2cccc(F)c2)sc1Cl (configuration not stated) + CC(C)NCC(C(=O)N1CCN(c2ncnc3c2C(C)CC3O)CC1)c1ccc(Cl)cc1
condition not met
3) Cn1ncc(Cl)c1-c1cc(C(=O)NC(CN)Cc2cccc(F)c2)sc1Cl (configuration not stated) + CCN1CCN(Cc2ccc(Nc3ncc(F)c(-c4cc(F)c5nc(C)n(C(C)C)c5c4)n3)nc2)CC1
condition not met
4) Cn1nccc1Nc1nccc(-c2ccn(C(CO)c3ccc(Cl)c(F)c3)c(=O)c2)n1 (configuration not stated) + CC(C)NCC(C(=O)N1CCN(c2ncnc3c2C(C)CC3O)CC1)c1ccc(Cl)cc1
condition not met
5) C=CC(=O)N1CCN(c2nc(=O)n(-c3c(C)ccnc3C(C)C)c3nc(-c4c(O)cccc4F)c(F)cc23)C(C)C1 (configuration not stated) + CCN1CCN(Cc2ccc(Nc3ncc(F)c(-c4cc(F)c5nc(C)n(C(C)C)c5c4)n3)nc2)CC1
condition not met
6) COc1c(OCCCN2CCOCC2)ccc2c3n(c(=NC(=O)c4cnc(N)nc4)nc12)CCN3 + CCN1CCN(Cc2ccc(Nc3ncc(F)c(-c4cc(F)c5nc(C)n(C(C)C)c5c4)n3)nc2)CC1
condition met
7) CCCS(=O)(=O)Nc1ccc(F)c(C(=O)c2c[nH]c3ncc(-c4ccc(Cl)cc4)cc23)c1F + CCN1CCN(Cc2ccc(Nc3ncc(F)c(-c4cc(F)c5nc(C)n(C(C)C)c5c4)n3)nc2)CC1
condition not met
8) Cn1ncnc1[C@H]1c2n[nH]c(=O)c3cc(F)cc(c23)N[C@@H]1c1ccc(F)cc1 + CC(C)NCC(C(=O)N1CCN(c2ncnc3c2C(C)CC3O)CC1)c1ccc(Cl)cc1
condition met
9) Cc1nc(NC(=O)N2CCCC2C(N)=O)sc1-c1ccnc(C(C)(C)C(F)(F)F)c1 (configuration not stated) + CC(C)NCC(C(=O)N1CCN(c2ncnc3c2C(C)CC3O)CC1)c1ccc(Cl)cc1
condition met
10) COc1c(OCCCN2CCOCC2)ccc2c3n(c(=NC(=O)c4cnc(N)nc4)nc12)CCN3 + CC(C)NCC(C(=O)N1CCN(c2ncnc3c2C(C)CC3O)CC1)c1ccc(Cl)cc1
condition not met
11) C=CCn1c(=O)c2cnc(Nc3ccc(N4CCN(C)CC4)cc3)nc2n1-c1cccc(C(C)(C)O)n1 + CC(C)NCC(C(=O)N1CCN(c2ncnc3c2C(C)CC3O)CC1)c1ccc(Cl)cc1
condition not met
12) C=CC(=O)N1CCN(c2nc(=O)n(-c3c(C)ccnc3C(C)C)c3nc(-c4c(O)cccc4F)c(F)cc23)C(C)C1 (configuration not stated) + CC(C)NCC(C(=O)N1CCN(c2ncnc3c2C(C)CC3O)CC1)c1ccc(Cl)cc1
condition met
13) CCCS(=O)(=O)Nc1ccc(F)c(C(=O)c2c[nH]c3ncc(-c4ccc(Cl)cc4)cc23)c1F + CC(C)NCC(C(=O)N1CCN(c2ncnc3c2C(C)CC3O)CC1)c1ccc(Cl)cc1
condition not met
14) CC1(C)CCC(CN2CCN(c3ccc(C(=O)NS(=O)(=O)c4ccc(NCC5CCOCC5)c([N+](=O)[O-])c4)c(Oc4cnc5[nH]ccc5c4)c3)CC2)=C(c2ccc(Cl)cc2)C1 + CCN1CCN(Cc2ccc(Nc3ncc(F)c(-c4cc(F)c5nc(C)n(C(C)C)c5c4)n3)nc2)CC1
condition not met
15) C=CCn1c(=O)c2cnc(Nc3ccc(N4CCN(C)CC4)cc3)nc2n1-c1cccc(C(C)(C)O)n1 + CCN1CCN(Cc2ccc(Nc3ncc(F)c(-c4cc(F)c5nc(C)n(C(C)C)c5c4)n3)nc2)CC1
condition not met
16) CC(C)n1nc(-c2ccc3oc(N)nc3c2)c2c(N)ncnc21 + CC(C)NCC(C(=O)N1CCN(c2ncnc3c2C(C)CC3O)CC1)c1ccc(Cl)cc1
condition met
